Tested on: PDC-DUC18828
Procedure Details: cell viability of compound + 1 nM pemigatinib relative to pemigatinib-only (DMSO) wells (fraction); higher = less growth inhibition
Test Settings: first compound 1 µM; pemigatinib concentration 1 nM; 72 h
The full ranking holds about 1,900 compounds; the median of “cell viability of compound + 1 nM pemigatinib relative to pemigatinib-only (DMSO) wells” is about 0.95 nM, and the lowest 2% start at about 0.22 nM. Only a selection was taken, and the lowest values are over-represented in it overall.
Endpoint Name: cell viability

What measured cell viability is associated with CN1CCc2c(c3ccccc3n2Cc2ccc(C(=O)NO)cc2)C1 [Tubastatin A] + CCN1C(=O)N(c2c(F)c(OC)cc(OC)c2F)Cc2cnc3[nH]c(CN4CCOCC4)cc3c21 [pemigatinib] on PDC-DUC18828?
0.974

Query for PDC-DUC18828: what cell viability does the record show for Cn1cc(CNCC2CCN(c3ncc(C(=O)NO)cn3)CC2)c2ccccc21 + CCN1C(=O)N(c2c(F)c(OC)cc(OC)c2F)Cc2cnc3[nH]c(CN4CCOCC4)cc3c21 [pemigatinib] ?
0.0657

So what cell viability did COc1cc(O)c(CC=C(C)C)c(O)c1C(=O)/C=C/c1ccc(O)cc1 [Xanthohumol] + CCN1C(=O)N(c2c(F)c(OC)cc(OC)c2F)Cc2cnc3[nH]c(CN4CCOCC4)cc3c21 [pemigatinib] get with PDC-DUC18828?
0.968

----------
Test system: PDC-DUC18828
Procedure Details: cell viability of compound + 1 nM pemigatinib relative to pemigatinib-only (DMSO) wells (fraction); higher = less growth inhibition
Test Settings: first compound 1 µM; pemigatinib concentration 1 nM; 72 h
Structures can show the parent of a compound that is named as a salt. In all, about 1,900 compounds were measured (“cell viability of compound + 1 nM pemigatinib relative to pemigatinib-only (DMSO) wells”: median about 0.95 nM, lowest 2% from about 0.22 nM on). Many of the other results were omitted from the sample, so the lowest values are more common in it than they were.
Param label: returns TRUE when cell viability < 0.9, returns FALSE otherwise, including exact equality.

Here are 10 compounds together with their reported answers.
- Compound: "COc1ccc(C2=N[C@H](c3ccc(Cl)cc3)[C@H](c3ccc(Cl)cc3)N2C(=O)N2CCNC(=O)C2)c(OC(C)C)c1 [Nutlin-3b] + CCN1C(=O)N(c2c(F)c(OC)cc(OC)c2F)Cc2cnc3[nH]c(CN4CCOCC4)cc3c21"
  Assigned Category: "FALSE"
- Compound: "C=CCn1c(=O)c2cnc(Nc3ccc(N4CCN(C)CC4)cc3)nc2n1-c1cccc(C(C)(C)O)n1 + CCN1C(=O)N(c2c(F)c(OC)cc(OC)c2F)Cc2cnc3[nH]c(CN4CCOCC4)cc3c21"
  Assigned Category: "TRUE"
- Compound: "CC(C)(CO)C(O)C(=O)NCCC(=O)O [Calcium D-Panthotenate] + CCN1C(=O)N(c2c(F)c(OC)cc(OC)c2F)Cc2cnc3[nH]c(CN4CCOCC4)cc3c21"
  Assigned Category: "FALSE"
- Compound: "Cc1cc(Nc2cc(N3CCN(C)CC3)nc(/C=C/c3ccccc3)n2)n[nH]1 + CCN1C(=O)N(c2c(F)c(OC)cc(OC)c2F)Cc2cnc3[nH]c(CN4CCOCC4)cc3c21"
  Assigned Category: "TRUE"
- Compound: "COc1ccc(/C=C\\c2cc(OC)c(OC)c(OC)c2)cc1O [Combretastatin A4] + CCN1C(=O)N(c2c(F)c(OC)cc(OC)c2F)Cc2cnc3[nH]c(CN4CCOCC4)cc3c21"
  Assigned Category: "TRUE"
- Compound: "COc1cc2ncnc(Oc3ccc(CC(=O)Nc4cnn(C(C)C)c4)cc3)c2cc1OC + CCN1C(=O)N(c2c(F)c(OC)cc(OC)c2F)Cc2cnc3[nH]c(CN4CCOCC4)cc3c21"
  Assigned Category: "FALSE"
- Compound: "O=C1NC(=O)C(c2cnc3ccccn23)=C1c1cn2c3c(cc(F)cc13)CN(C(=O)N1CCCCC1)CC2 + CCN1C(=O)N(c2c(F)c(OC)cc(OC)c2F)Cc2cnc3[nH]c(CN4CCOCC4)cc3c21"
  Assigned Category: "TRUE"
- Compound: "CCN(CC)CCOC(=O)c1ccc(N)cc1Cl [Chloroprocaine HCl] + CCN1C(=O)N(c2c(F)c(OC)cc(OC)c2F)Cc2cnc3[nH]c(CN4CCOCC4)cc3c21"
  Assigned Category: "FALSE"
- Compound: "O=C(c1ccc(/C=C/c2n[nH]c3ccccc23)cc1)N1CCNCC1 + CCN1C(=O)N(c2c(F)c(OC)cc(OC)c2F)Cc2cnc3[nH]c(CN4CCOCC4)cc3c21"
  Assigned Category: "FALSE"
- Compound: "N#Cc1c(Oc2ccc(F)c(NC(=O)Cc3cccc(C(F)(F)F)c3)c2)ccc2nc(NC(=O)C3CC3)sc12 + CCN1C(=O)N(c2c(F)c(OC)cc(OC)c2F)Cc2cnc3[nH]c(CN4CCOCC4)cc3c21"
  Assigned Category: "FALSE"

Given O=C(Oc1cc(S(=O)(=O)c2ccccc2)ccc1[N+](=O)[O-])c1ccc(Cl)cc1 + CCN1C(=O)N(c2c(F)c(OC)cc(OC)c2F)Cc2cnc3[nH]c(CN4CCOCC4)cc3c21 , is recorded cell viability strictly lower than 0.9?
FALSE

Threshold test, cell viability < 0.9: O=C(/C=C\n1cnc(-c2cc(C(F)(F)F)cc(C(F)(F)F)c2)n1)NNc1cnccn1 + CCN1C(=O)N(c2c(F)c(OC)cc(OC)c2F)Cc2cnc3[nH]c(CN4CCOCC4)cc3c21
TRUE

A record lists COc1cc2ncnc(Sc3nnc(C)s3)c2cc1OC + CCN1C(=O)N(c2c(F)c(OC)cc(OC)c2F)Cc2cnc3[nH]c(CN4CCOCC4)cc3c21 . Is its cell viability below 0.9?
FALSE

API: query returns whether the compound falls strictly under 0.9 in cell viability. Query: COc1cc(-c2cc(-c3cccc(O)c3)cnc2N)cc(OC)c1OC + CCN1C(=O)N(c2c(F)c(OC)cc(OC)c2F)Cc2cnc3[nH]c(CN4CCOCC4)cc3c21
FALSE

Lab note: cell viability threshold 0.9. Does this compound come in strictly under it? O=C(c1cccc(Cl)c1F)N1CCN(Cc2cccc(Nc3nccs3)n2)CC1 + CCN1C(=O)N(c2c(F)c(OC)cc(OC)c2F)Cc2cnc3[nH]c(CN4CCOCC4)cc3c21
TRUE

----------
Measured cell viability, listed per entry.
Tested on: PDC-DUC18828
Procedure Details: cell viability of compound + 1 nM pemigatinib relative to pemigatinib-only (DMSO) wells (fraction); PDC-DUC18828 is a patient-derived cholangiocarcinoma cell line; higher = less growth inhibition
Test Settings: first compound 1 µM; pemigatinib concentration 1 nM; 72 h
The full ranking holds about 1,900 compounds; the median of “cell viability of compound + 1 nM pemigatinib relative to pemigatinib-only (DMSO) wells” is about 0.95 nM, and the lowest 2% start at about 0.22 nM. For the sample, the lowest values were picked, then their nearest neighbours and some compounds at random.
Just the number, please, no unit after it.

- Molecule: "CC(C)c1cc(-c2ccc(F)c3ccccc23)nc(N)n1 + CCN1C(=O)N(c2c(F)c(OC)cc(OC)c2F)Cc2cnc3[nH]c(CN4CCOCC4)cc3c21 [pemigatinib]"
  Assay Target: "PDC-DUC18828"
  Endpoint Name: "cell viability"
  Result Number: 0.951

Reported cell viability for CCn1c2ccccc2c2cc(Nc3ccnc(NCCCN4CCOCC4)n3)ccc21 + CCN1C(=O)N(c2c(F)c(OC)cc(OC)c2F)Cc2cnc3[nH]c(CN4CCOCC4)cc3c21 [pemigatinib] : what is it?
0.985

Any idea what its cell viability is? The molecule is CC(NC(=O)C(Cc1ccccc1)NC(=O)OCc1ccccc1)C(=O)CF (stereo not given) + CCN1C(=O)N(c2c(F)c(OC)cc(OC)c2F)Cc2cnc3[nH]c(CN4CCOCC4)cc3c21 [pemigatinib]
1.01

What value of cell viability has been reported for the following molecule? COc1nccc(-c2c(-c3ccc(F)cc3)ncn2C2CCC(O)CC2)n1 (stereo not given) + CCN1C(=O)N(c2c(F)c(OC)cc(OC)c2F)Cc2cnc3[nH]c(CN4CCOCC4)cc3c21 [pemigatinib]
0.917

Value lookup for cell viability; key = Cc1cc(C)c(Nc2ccnc(Nc3ccc(C#N)cc3)n2)c(C)c1 [Dapivirine (TMC120)] + CCN1C(=O)N(c2c(F)c(OC)cc(OC)c2F)Cc2cnc3[nH]c(CN4CCOCC4)cc3c21 [pemigatinib]
0.85

Value lookup for cell viability; key = CN(C)Cc1ccc(S(=O)(=O)n2ccc(/C=C/C(=O)NO)c2)cc1 [Resminostat] + CCN1C(=O)N(c2c(F)c(OC)cc(OC)c2F)Cc2cnc3[nH]c(CN4CCOCC4)cc3c21 [pemigatinib]
0.96

What cell viability value was documented for this molecule, CNC(=O)c1nn(C)c2c1C(C)(C)Cc1cnc(Nc3ccc(N4CCN(C)CC4)cc3)nc1-2 + CCN1C(=O)N(c2c(F)c(OC)cc(OC)c2F)Cc2cnc3[nH]c(CN4CCOCC4)cc3c21 [pemigatinib] ?
0.67

What cell viability value was documented for this molecule, C[C@@]1(C(=O)Nc2ccc(F)nc2)CCCN1c1nc(Nc2cc(C3CC3)n[nH]2)c2cccn2n1 + CCN1C(=O)N(c2c(F)c(OC)cc(OC)c2F)Cc2cnc3[nH]c(CN4CCOCC4)cc3c21 [pemigatinib] ?
0.688

# input molecule: CC(C)CC(CC(=O)NO)C(=O)N[C@@H](Cc1ccc2ccccc2c1)C(=O)N[C@@H](C)C(=O)NCCN (stereo not given in full) + CCN1C(=O)N(c2c(F)c(OC)cc(OC)c2F)Cc2cnc3[nH]c(CN4CCOCC4)cc3c21 [pemigatinib] ; wanted: its cell viability
0.971

Recorded cell viability for C[C@H](Nc1ncnc2[nH]cnc12)c1cc2ccc(F)cc2nc1-c1ccccn1 + CCN1C(=O)N(c2c(F)c(OC)cc(OC)c2F)Cc2cnc3[nH]c(CN4CCOCC4)cc3c21 [pemigatinib] , please?
0.858
